- Tested on: Leishmania donovani axenic amastigote parasites
- assay-protocol: Leishmania donovani axenic amastigote proliferation assay (Cell TiterGlo luminescence, 2 day incubation)
- Assay type: cell-based
- measurement-context: Leishmania donovani, L. donovani axenic amastigotes; read-out: L. donovani amastigotes EC50
Lab note - cut at 100 nM for EC50: YES if strictly below, NO if not.

[[record]]
compound = "Cc1nc(C)c(C(=O)Nc2ccc(F)c(-c3cn4cc(C#CCCN5CCCC(O)C5)cnc4n3)c2)o1 (stereo not shown)"
group = "NO"

[[record]]
compound = "CC1(c2nc(Nc3ccc(F)c(-c4cn5cc(C6CC6)cnc5n4)c3)no2)COC1"
group = "NO"

[[record]]
compound = "Cc1nc(C)c(C(=O)Nc2ccc(F)c(-c3cn4cc(NCC(C)C)cnc4n3)c2)o1"
group = "NO"

[[record]]
compound = "CC(C)c1cnc2nc(-c3cc(NC(=O)N4CC[C@@H](F)C4)ccc3F)cn2c1"
group = "YES"

[[record]]
compound = "Cc1nc(C)c(C(=O)Nc2ccc(F)c(-c3cn4cc(-c5cnn(CCN6CCOCC6)c5)cnc4n3)c2)o1"
group = "NO"

[[record]]
compound = "Cc1nc(C)c(C(=O)Nc2ccc(F)c(-c3cn4cc(-c5cccc(C(N)=O)n5)cnc4n3)c2)o1"
group = "NO"

[[record]]
compound = "O=C(Nc1cnc2nc(-c3cc(NC(=O)N4CCCC4)ccc3F)cn2c1)OCc1ccccc1"
group = "NO"

[[record]]
compound = "CC(=O)c1ccc(-c2cnc3nc(-c4cc(NC(=O)c5oc(C)nc5C)ccc4F)cn3c2)cn1"
group = "YES"

[[record]]
compound = "Cc1nc(C)c(C(=O)Nc2ccc(F)c(-c3cn4cc(-c5ccc(N6CCOCC6)cc5)cnc4n3)c2)o1"
group = "NO"

[[record]]
compound = "Cc1nc(C)c(C(=O)Nc2ccc(F)c(-c3cn4cc(C(C)C)cnc4n3)c2)o1"
group = "YES"

[[record]]
compound = "CC(C)c1cnc2nc(-c3cc(NC(=O)N4CC(F)C4)ccc3F)cn2c1"
group = "YES"

[[record]]
compound = "Cc1nc(C)c(C(=O)Nc2ccc(F)c(-c3cn4cc(NC5=NCCN5C)cnc4n3)c2)o1"
group = "NO"

[[record]]
compound = "Cc1nc(C)c(C(=O)Nc2ccc(F)c(-c3cn4cc(-c5cncc(C(C)C)c5)cnc4n3)c2)o1"
group = "NO"

[[record]]
compound = "Cc1cccc(-c2cnc3nc(-c4cc(NC(=O)N5CCCC5)ccc4F)cn3c2)n1"
group = "NO"

[[record]]
compound = "Cc1nc(C)c(C(=O)Nc2ccc(F)c(-c3cn4cc(-c5ncccc5C(F)F)cnc4n3)c2)o1"
group = "YES"

[[record]]
compound = "C=Cc1cnc2nc(-c3cc(NC(=O)c4oc(C)nc4C)ccc3F)cn2c1"
group = "NO"

